target: T1, PSMA Fab; assay: clonal phage ELISA; biotinylated PSMA Fab on neutravidin plate, wells pre-incubated with PSMA antigen as competitor; anti-M13 HRP detection;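 further: crude clonal phage supernatants added to antigen-treated wells without a wash, incubated briefly, then bound phage read out via horse radish–conjugated anti-M13 antibody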
T1 construct: also called Anti-PSMA Fab; 006 PSMA Fab
Hi all, reminder that labels come from Phage binding ELISA signal, Anti-PSMA Fab in presence of PSMA, split as b0: < 0.08; b1: ≥ 0.08 and < 0.1; b2: ≥ 0.1

> print(dat)
                        binder  group.label
1  LGNLCVPPWMCQGF [Phage-3257]           b2
2  PTPVCKPGWMCDLF [Phage-3261]           b1
3  VSIVCVPEWMCSGF [Phage-3262]           b0
4  SIPKCMPEWMCIGL [Phage-3253]           b0
5  QPGYCVPQWMCMGF [Phage-3258]           b1
6  IVPWCKPAWMCAVS [Phage-3255]           b2
7  FFKMCIPEWMCSGF [Phage-3263]           b2
8  EENFCVPKWMCEGF [Phage-3264]           b2
9  DGFICRPEWMCQWL [Phage-3256]           b0

Origin of measurements: patent US20260242478A1
